Test system: MCF10A
Assay: 5+ nucleoli phenotype percent effect (relative to siNT 0% and siKIF11 100%); higher = more cells with five or more nucleoli
Conditions: 20 nM; 72 h
I'd be grateful if you could share measured 5+ nucleoli phenotype percent effect for these entries.
Record the value in %, omitting the unit from your answer.

// recorded 5+ nucleoli phenotype percent effect for UUCAACAAGGGUGUAGGAUGG [hsa-miR-7159-5p] : 14.1

// recorded 5+ nucleoli phenotype percent effect for UCUGUGCUACUGGAUGAAGAGU [hsa-miR-7157-3p] : 36.4

// recorded 5+ nucleoli phenotype percent effect for GUGGACCAGGAUGGCAAGGGCU [hsa-miR-4776-5p] : 14.5

// recorded 5+ nucleoli phenotype percent effect for CAGUGAUCGUCUCUGCUGGC [hsa-miR-8079] : -35

// recorded 5+ nucleoli phenotype percent effect for ACCUGCCAGCACCUCCCUGCAG [hsa-miR-4722-3p] : -32.2

// recorded 5+ nucleoli phenotype percent effect for ACCUGGGUUGUCCCCUCUAG [hsa-miR-6742-3p] : 73.9

// recorded 5+ nucleoli phenotype percent effect for UGGGGACGUAGCUGGCCAGACAG [hsa-miR-3191-3p] : 4.11

// recorded 5+ nucleoli phenotype percent effect for GUUGGGGUGCAGGGGUCUGCU [hsa-miR-5572] : -19.8

// recorded 5+ nucleoli phenotype percent effect for CUCGUGGGCUCUGGCCACGGCC [hsa-miR-3677-3p] : -9.65

// recorded 5+ nucleoli phenotype percent effect for CCUGACACCCCAUCUGCCCUCA [hsa-miR-6730-3p] : -26.1

// recorded 5+ nucleoli phenotype percent effect for UUUCAAGCCAGGGGGCGUUUUUC [hsa-miR-498] : 23.7

// recorded 5+ nucleoli phenotype percent effect for UGUUGUACUUUUUUUUUUGUUC [hsa-miR-3613-5p] : 4.98

// recorded 5+ nucleoli phenotype percent effect for GAUUUCAGUGGAGUGAAGUUC [hsa-miR-205-3p] : 51.7

// recorded 5+ nucleoli phenotype percent effect for UAUAUGGACUUUUCUGAUACAAUG [hsa-miR-8076] : 44.8

// recorded 5+ nucleoli phenotype percent effect for CUCUCACCACUGCCCUCCCACAG [hsa-miR-1229-3p] : 24.9

// recorded 5+ nucleoli phenotype percent effect for UGAGACCAGGACUGGAUGCACC [hsa-miR-4786-5p] : -0.448

// recorded 5+ nucleoli phenotype percent effect for AUCGUGCAUCCCUUUAGAGUGU [hsa-miR-517b-3p] : -20.3

// recorded 5+ nucleoli phenotype percent effect for UGAGAUGACACUGUAGCU [hsa-miR-4770] : -3.17

// recorded 5+ nucleoli phenotype percent effect for UGAUUGUCCAAACGCAAUUCU [hsa-miR-219-5p] : 14.5

// recorded 5+ nucleoli phenotype percent effect for AUGGUCUCCUGUUCUCUGCAG [hsa-miR-6843-3p] : 7.69

// recorded 5+ nucleoli phenotype percent effect for ACUGGGAUGUCACUGAAUAUGGU [hsa-miR-6506-5p] : -3.32

====

System: MCF10A
Test: one-nucleolus phenotype percent effect (relative to siNT 0% and siNOL11 100%); higher = more cells with one nucleolus (ribosome biogenesis inhibition)
Details: 20 nM; 72 h
I'd be grateful if you could share measured one-nucleolus phenotype percent effect for these entries.
Record the value in %, omitting the unit from your answer.

// recorded one-nucleolus phenotype percent effect for CCAGUGUGGCUCAGCGAG [hsa-miR-4302] : 18.9

// recorded one-nucleolus phenotype percent effect for CUGUACAACCUUCUAGCUUUCC [hsa-let-7c-3p] : -4.89

// recorded one-nucleolus phenotype percent effect for CUAUACAAUCUACUGUCUUUC [hsa-let-7a-3p] : -10.4

====

System: MCF10A
Assay: percent viability (nuclei count relative to siNT); higher = more viable cells
Conditions: 20 nM; 72 h
Measured Endpoint: percent viability

// recorded percent viability for AAAGUGCUUCCUUUUUGAGGG [hsa-miR-520e] : 84.4%

// recorded percent viability for GUGCAUUGUAGUUGCAUUGCA [hsa-miR-33a-5p] : 46%

// recorded percent viability for GGGGAGCUGUGGAAGCAGUA [hsa-miR-920] : 53.2%

// recorded percent viability for AUCGGGCCCUCGGCGCCGG [hsa-miR-3181] : 31.6%

// recorded percent viability for AGGAUGAGCAAAGAAAGUAGAUU [hsa-miR-1255a] : 128%

// recorded percent viability for CUGAACUAGAGAUUGGGCCCA [hsa-miR-7158-3p] : 32.7%

// recorded percent viability for UCAUCCCCCUCGCCCUCUCAG [hsa-miR-6729-3p] : 58.8%

// recorded percent viability for CUGGAGAUAUGGAAGAGCUGUGU [hsa-miR-1270] : 34.1%

// recorded percent viability for GUGUCUGCUUCCUGUGGGA [hsa-miR-632] : 37%

// recorded percent viability for UUAGAACGUUUUAGGGUCAAAU [hsa-miR-5687] : 50.5%

// recorded percent viability for CCUCGGUACUGGAAAGGGGUA [hsa-miR-8088] : 108%

// recorded percent viability for AAAAGUAUUUGCGGGUUUUGUC [hsa-miR-548l] : 127%

// recorded percent viability for UACUGCAGACGUGGCAAUCAUG [hsa-miR-509-3-5p] : 26.5%

// recorded percent viability for GCUGGUGACAUGAGAGGC [hsa-miR-4299] : 42.6%

// recorded percent viability for GAGGCUGAGCUGAGGAG [hsa-miR-4478] : 22.9%

// recorded percent viability for CGCAGGGCCCUGGCGCAGGCAU [hsa-miR-6836-5p] : 37.7%

// recorded percent viability for UGGUGGGCACAGAAUCUGGACU [hsa-miR-541-3p] : 24.6%

// recorded percent viability for AAAACUAGGACUGUGUGGUGUA [hsa-miR-7844-5p] : 40.6%

// recorded percent viability for UGGGCGAGGGCGGCUGAGCGGC [hsa-miR-6729-5p] : 29%

// recorded percent viability for UAGCCCCCAGGCUUCACUUGGCG [hsa-miR-3943] : 19.1%

// recorded percent viability for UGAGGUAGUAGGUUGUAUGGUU [hsa-let-7c] : 25.9%

// recorded percent viability for UCUGGCUCCGUGUCUUCACUCCC [hsa-miR-149-5p] : 32.7%

====

Tested on: MCF10A
Test: 5+ nucleoli phenotype percent effect (relative to siNT 0% and siKIF11 100%); higher = more cells with five or more nucleoli
Settings: 20 nM; 72 h
Measured Endpoint: 5+ nucleoli phenotype percent effect (%)
Record the value in %, omitting the unit from your answer.

Case UUAUGGUUUGCCUGGGACUGAG [hsa-miR-584-5p] , MCF10A, 5+ nucleoli phenotype percent effect recorded as 35

Case AACUCGUGUUCAAAGCCUUUAG [hsa-miR-4636] , MCF10A, 5+ nucleoli phenotype percent effect recorded as 12.8

Case GUAGGGGCGUCCCGGGCGCGCGGG [hsa-miR-6789-5p] , MCF10A, 5+ nucleoli phenotype percent effect recorded as 28.1

Case AAAGGAAAGUGUAUCCUAAAAG [hsa-miR-651-3p] , MCF10A, 5+ nucleoli phenotype percent effect recorded as 37

Case UUGAAUUCUUGGCCUUAAGUGAU [hsa-miR-4452] , MCF10A, 5+ nucleoli phenotype percent effect recorded as -9.56

Case GGGGCUGUGAUUGACCAGCAGG [hsa-miR-4675] , MCF10A, 5+ nucleoli phenotype percent effect recorded as -11.5

Case UCAGCAUUCAUUGGCACCAGAGA [hsa-miR-7157-5p] , MCF10A, 5+ nucleoli phenotype percent effect recorded as -18.8

Case GCGAGGACCCCUCGGGGUCUGAC [hsa-miR-611] , MCF10A, 5+ nucleoli phenotype percent effect recorded as 45.7

Case CUGGGAUCUCCGGGGUCUUGGUU [hsa-miR-769-3p] , MCF10A, 5+ nucleoli phenotype percent effect recorded as -14.5

Case AUGUAUAAAUGUAUACACAC [hsa-miR-568] , MCF10A, 5+ nucleoli phenotype percent effect recorded as 26.1

Case UACAGAUGCAGAUUCUCUGACUUC [hsa-miR-5683] , MCF10A, 5+ nucleoli phenotype percent effect recorded as 8.12

Case UGGGUGGAAGAAGGUCUGGUU [hsa-miR-6745] , MCF10A, 5+ nucleoli phenotype percent effect recorded as -9.03

Case AGGCAGCGGGGUGUAGUGGAUA [hsa-miR-885-3p] , MCF10A, 5+ nucleoli phenotype percent effect recorded as -36.7

Case AAUCGUACAGGGUCAUCCACUU [hsa-miR-487b] , MCF10A, 5+ nucleoli phenotype percent effect recorded as 24.3

Case AGACACUAUACGAGUCAUAU [hsa-miR-3117-5p] , MCF10A, 5+ nucleoli phenotype percent effect recorded as 12.6

Case UCCGGUUCUCAGGGCUCCACC [hsa-miR-671-3p] , MCF10A, 5+ nucleoli phenotype percent effect recorded as -33.5

Case CAAAAACCGCAAUUACUUUUGCA [hsa-miR-548h-3p] , MCF10A, 5+ nucleoli phenotype percent effect recorded as -11

Case UGAGGUAGUAGAUUGUAUAGUU [hsa-let-7f-5p] , MCF10A, 5+ nucleoli phenotype percent effect recorded as 25.3

Case CCAUGGAUCUCCAGGUGGGU [hsa-miR-490-5p] , MCF10A, 5+ nucleoli phenotype percent effect recorded as 16.2

Case CAAAAACCGGCAAUUACUUUUG [hsa-miR-548ac] , MCF10A, 5+ nucleoli phenotype percent effect recorded as 8.34

Case UAGCAGCGGGAACAGUUCUGCAG [hsa-miR-503-5p] , MCF10A, 5+ nucleoli phenotype percent effect recorded as -16.1

Case UAGGUGGCGCCGGAGGAGUCAUU [hsa-miR-6815-5p] , MCF10A, 5+ nucleoli phenotype percent effect recorded as -6.84

Case CCAAACCAGUCGUGCCUGUGG [hsa-miR-6715a-3p] , MCF10A, 5+ nucleoli phenotype percent effect recorded as -42

Case UAGGCCACAGCCACCCAUGUGU [hsa-miR-4717-5p] , MCF10A, 5+ nucleoli phenotype percent effect recorded as -6.97

Case UGCUGCCUCUCCUCUUGCCUGCAG [hsa-miR-6882-3p] , MCF10A, 5+ nucleoli phenotype percent effect recorded as 44.3

Case UUGCUAGUUGCACUCCUCUCUGU [hsa-miR-449c-3p] , MCF10A, 5+ nucleoli phenotype percent effect recorded as -15.1

Case CGGGUAGAGAGGGCAGUGGGAGG [hsa-miR-197-5p] , MCF10A, 5+ nucleoli phenotype percent effect recorded as 48.2

Case CCUAGAAACUGUAAACUUAGUC [hsa-miR-8067] , MCF10A, 5+ nucleoli phenotype percent effect recorded as 47.4

Case CCAGAGGUGGGGACUGAG [hsa-miR-4257] , MCF10A, 5+ nucleoli phenotype percent effect recorded as 1.69

Case GGGGAGGUGUGCAGGGCUGG [hsa-miR-6799-5p] , MCF10A, 5+ nucleoli phenotype percent effect recorded as 37

Case GUGAGUCUCUAAGAAAAGAGGA [hsa-miR-627] , MCF10A, 5+ nucleoli phenotype percent effect recorded as 7.75

Case AGCCUUCCAGGAGAAAUGGAGA [hsa-miR-5581-5p] , MCF10A, 5+ nucleoli phenotype percent effect recorded as -16.7

Case ACGGCCCAGGCGGCAUUGGUG [hsa-miR-6075] , MCF10A, 5+ nucleoli phenotype percent effect recorded as 5.39

Case CUGACUGAAUAGGUAGGGUCAUU [hsa-miR-3136-5p] , MCF10A, 5+ nucleoli phenotype percent effect recorded as -32.9

Case UUCAGAUCCCAGCGGUGCCUCU [hsa-miR-5100] , MCF10A, 5+ nucleoli phenotype percent effect recorded as -27.6

Case CCUGAGCCCGGGCCGCGCAG [hsa-miR-1199-5p] , MCF10A, 5+ nucleoli phenotype percent effect recorded as 27.4

Case GAAAUCAAGCGUGGGUGAGACC [hsa-miR-551b-5p] , MCF10A, 5+ nucleoli phenotype percent effect recorded as 40.3

Case CUUCCCCCCAGUAAUCUUCAUC [hsa-miR-3679-3p] , MCF10A, 5+ nucleoli phenotype percent effect recorded as -16.6

Case AGGACCUGCGGGACAAGAUUCUU [hsa-miR-492] , MCF10A, 5+ nucleoli phenotype percent effect recorded as -18.8

Case CUACCCUCGGUCUGCUUACCACA [hsa-miR-7848-3p] , MCF10A, 5+ nucleoli phenotype percent effect recorded as -35.7
